System: Renca cells (renal cell carcinoma)
Experiment: Effect of the isomers on in vivo tumour growth in mice challenged with Renca cells
Conditions: day 25 after tumour inoculation; 260 ng/mouse i.p. on days 6, 7 and 14; s.c. Renca in Balb/c mice
Measure: Tumour volume, overall values (Mean) (mm^3)
Answers are plain numbers, in mm^3.

Solved entries:
[
  {
    "Compound": "Br.N[C@]1(C[n+]2ccccc2)C[C@@H](C(=O)O)NC1=O.[Br-] (single isomer, unassigned; isomer 3) [isomer 3]",
    "Units Symbol": "mm^3",
    "Tumour volume, overall values (Mean)": 557.18
  },
  {
    "Compound": "Br.N[C@]1(C[n+]2ccccc2)C[C@H](C(=O)O)NC1=O.[Br-] (single isomer, unassigned; isomer 4) [isomer 4]",
    "Units Symbol": "mm^3",
    "Tumour volume, overall values (Mean)": 372.82
  },
  {
    "Compound": "Br.N[C@@]1(C[n+]2ccccc2)C[C@H](C(=O)O)NC1=O.[Br-] (single isomer, unassigned; isomer 2) [isomer 2]",
    "Units Symbol": "mm^3",
    "Tumour volume, overall values (Mean)": 938.48
  }
]

Please find the next compound below.
**Q:** Could you tell me which Tumour volume, overall values (Mean) is on file for Br.N[C@@]1(C[n+]2ccccc2)C[C@@H](C(=O)O)NC1=O.[Br-] (single isomer, unassigned; isomer 1) [isomer 1] ?
**A:** 895.58

----------
What Tumour volume, overall values (Median) was measured for each of the following?
Test system: Renca cells (renal cell carcinoma)
Test: Effect of the isomers on in vivo tumour growth in mice challenged with Renca cells
Conditions: day 14 after tumour inoculation; 260 ng/mouse i.p. on days 6, 7 and 14; s.c. Renca in Balb/c mice
One number for each entry, in mm^3.

[
  {
    "Compound": "Br.N[C@]1(C[n+]2ccccc2)C[C@H](C(=O)O)NC1=O.[Br-] (single isomer, unassigned; isomer 4) [isomer 4]",
    "Tumour volume, overall values (Median), mm^3": 0
  }
]

Quick request: Tumour volume, overall values (Median) for each listed item, please.
1. Br.N[C@]1(C[n+]2ccccc2)C[C@@H](C(=O)O)NC1=O.[Br-] (single isomer, unassigned; isomer 3) [isomer 3]
2. Br.N[C@@]1(C[n+]2ccccc2)C[C@H](C(=O)O)NC1=O.[Br-] (single isomer, unassigned; isomer 2) [isomer 2]
3. Br.N[C@@]1(C[n+]2ccccc2)C[C@@H](C(=O)O)NC1=O.[Br-] (single isomer, unassigned; isomer 1) [isomer 1]

**A:**
1. 4
2. 13.5
3. 22.75

Reference source for all entries: patent US20070249678A1
